system: BALB/c mice; test: Tolerability in BALB/c mice: plasma transaminases ALT and AST (Example 7); conditions: 50 mg/kg twice a week, Week 4
In the oligonucleotide strings, read from the 5' end, every base follows the letter of its sugar. An asterisk marks phosphorothioate; unmarked linkages are phosphodiester. Other units and linkages are bracketed, terminal groups are in braces. A string of capitals states the bases alone. e = 2'-O-(2-methoxyethyl) (MOE); [5mC] = 5-methylcytosine; d = 2'-deoxy (DNA)
PROPERTY_NAME: alanine transaminase levels (IU/L)
Write down the numeric answer in IU/L and omit the unit.

As a guide, the following entries are already answered.
413982 (antisense GCCTCCGGCTCCCAGCGGCA; sugars from the 5' end e2 d13 e5, backbone and methylation of C not given here) [compound 413982] | 462
414036 (antisense GTGTCCTTAAATACAGCCCC; sugars from the 5' end e2 d13 e5, backbone and methylation of C not given here) [compound 414036] | 190
414040 (antisense e[5mC]*eT*d[5mC]*dT*d[5mC]*dT*d[5mC]*d[5mC]*dA*dT*d[5mC]*dT*dT*dT*dA*eA*eT*eG*eG*eG) [compound 414040] | 4997

Please turn your attention to the following entry.
Read off the recorded alanine transaminase levels for 414035 (antisense GTCCTTAAATACAGCCCCCA; sugars from the 5' end e2 d13 e5, backbone and methylation of C not given here) [compound 414035]
67

---

tested on: human TGF-beta1 mRNA; experiment: Antisense inhibition of human TGF-beta1 mRNA in HuVEC cells, single 10 nM dose, Lipofectamine 2000 (Example 2); format: cell-based; conditions: 10 nM oligonucleotide, HuVEC, relative to untreated control cells; gapmers targeted to SEQ ID NO: 2
In the oligonucleotide strings, read from the 5' end, every base follows the letter of its sugar. An asterisk marks phosphorothioate; unmarked linkages are phosphodiester. Other units and linkages are bracketed, terminal groups are in braces. A string of capitals states the bases alone. e = 2'-O-(2-methoxyethyl) (MOE); [5mC] = 5-methylcytosine; d = 2'-deoxy (DNA)
Param threshold (70%) applies to % inhibition; output YES when value >= threshold, NO when value < threshold.

Illustrative cases are given below, each with its answer.
414115 (antisense eT*eT*dT*dT*d[5mC]*d[5mC]*dA*dT*dA*dA*dT*dA*dA*dA*dG*eG*eA*eA*eT*eT) [compound 414115] | NO
414102 (antisense eT*eT*dT*dG*dA*dA*d[5mC]*dT*dA*d[5mC]*dA*dT*dG*dG*dG*eT*e[5mC]*e[5mC]*eT*e[5mC]) [compound 414102] | YES
414055 (antisense eA*eT*dT*dA*dG*dT*dT*dT*dT*d[5mC]*d[5mC]*dA*d[5mC]*d[5mC]*d[5mC]*eT*eT*eA*eA*e[5mC]) [compound 414055] | NO

Item 414076 (antisense eG*eT*dT*d[5mC]*d[5mC]*d[5mC]*d[5mC]*dA*dG*d[5mC]*dT*dA*d[5mC]*d[5mC]*dT*eA*eG*e[5mC]*e[5mC]*eA) [compound 414076] with % inhibition of 70% or above?
NO

---

Known percent inhibition of TGF-beta1 of a selection of substances
system: human TGF-beta1 mRNA; test: Dose-dependent antisense inhibition of human TGF-beta1 in HuVEC cells, Lipofectamine 2000, 0.9375-30 nM (Example 3); assay type: cell-based; settings: 30 nM, Lipofectamine 2000
In the oligonucleotide strings, read from the 5' end, every base follows the letter of its sugar. An asterisk marks phosphorothioate; unmarked linkages are phosphodiester. Other units and linkages are bracketed, terminal groups are in braces. A string of capitals states the bases alone. e = 2'-O-(2-methoxyethyl) (MOE); [5mC] = 5-methylcytosine; d = 2'-deoxy (DNA)
Note: unit % is implicit; provide only the numeric part.

414040 (antisense e[5mC]*eT*d[5mC]*dT*d[5mC]*dT*d[5mC]*d[5mC]*dA*dT*d[5mC]*dT*dT*dT*dA*eA*eT*eG*eG*eG) [compound 414040] | 95
414036 (antisense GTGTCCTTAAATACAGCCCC; sugars from the 5' end e2 d13 e5, backbone and methylation of C not given here) [compound 414036] | 93
414022 (antisense eG*eG*dG*d[5mC]*dT*d[5mC]*d[5mC]*dG*dG*dT*dT*d[5mC]*dT*dG*d[5mC]*eA*e[5mC]*eT*e[5mC]*eT) [compound 414022] | 92
413982 (antisense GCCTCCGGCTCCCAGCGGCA; sugars from the 5' end e2 d13 e5, backbone and methylation of C not given here) [compound 413982] | 97
413970 (antisense eG*e[5mC]*d[5mC]*dT*d[5mC]*dA*dG*dG*d[5mC]*dT*dG*d[5mC]*dT*d[5mC]*d[5mC]*eT*e[5mC]*eG*eG*e[5mC]) [compound 413970] | 95

Write down percent inhibition of TGF-beta1 measured for item 414102 (antisense eT*eT*dT*dG*dA*dA*d[5mC]*dT*dA*d[5mC]*dA*dT*dG*dG*dG*eT*e[5mC]*e[5mC]*eT*e[5mC]) [compound 414102]
84

Tell me measured percent inhibition of TGF-beta1 for 414058 (antisense eA*eG*dG*dT*d[5mC]*dA*dA*dG*d[5mC]*d[5mC]*dA*dT*dG*dT*dG*eG*e[5mC]*eA*e[5mC]*e[5mC]) [compound 414058] please.
81

Provide one value: measured percent inhibition of TGF-beta1 of 414035 (antisense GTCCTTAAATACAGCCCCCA; sugars from the 5' end e2 d13 e5, backbone and methylation of C not given here) [compound 414035]
94

Please indicate percent inhibition of TGF-beta1 recorded for 414037 (antisense eG*eG*dG*dT*dG*dT*d[5mC]*d[5mC]*dT*dT*dA*dA*dA*dT*dA*e[5mC]*eA*eG*e[5mC]*e[5mC]) [compound 414037]
92

Check the records and state percent inhibition of TGF-beta1 for 413979 (antisense eG*eG*d[5mC]*dT*d[5mC]*d[5mC]*d[5mC]*dA*dG*d[5mC]*dG*dG*d[5mC]*dA*dA*e[5mC]*eG*eG*eA*eA) [compound 413979]
94
